// data source = PubChem BioAssay

Target: Pro-neuregulin-1, membrane-bound isoform (Homo sapiens) (UniProt Q02297)
Sequence (Q02297 whole entry, looked up, canonical isoform): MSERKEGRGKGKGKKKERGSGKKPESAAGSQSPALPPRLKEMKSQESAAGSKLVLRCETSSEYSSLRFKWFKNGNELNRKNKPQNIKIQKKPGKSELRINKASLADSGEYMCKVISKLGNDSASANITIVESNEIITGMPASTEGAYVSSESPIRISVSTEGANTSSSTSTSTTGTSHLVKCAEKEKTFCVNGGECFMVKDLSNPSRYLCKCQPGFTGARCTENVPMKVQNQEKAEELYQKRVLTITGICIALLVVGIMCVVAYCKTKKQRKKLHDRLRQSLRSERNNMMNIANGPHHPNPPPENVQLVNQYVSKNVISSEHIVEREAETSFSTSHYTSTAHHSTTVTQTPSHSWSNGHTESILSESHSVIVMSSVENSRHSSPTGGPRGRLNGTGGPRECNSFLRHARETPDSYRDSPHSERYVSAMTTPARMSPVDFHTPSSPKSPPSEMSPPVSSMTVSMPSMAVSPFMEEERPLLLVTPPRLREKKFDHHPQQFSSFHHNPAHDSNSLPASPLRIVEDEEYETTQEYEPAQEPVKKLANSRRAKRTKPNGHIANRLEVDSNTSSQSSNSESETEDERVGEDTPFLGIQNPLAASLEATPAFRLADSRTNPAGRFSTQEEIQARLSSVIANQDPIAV
Test: NRG1 binders on small-molecule microarrays, primary screen, psychiatric disease protein project, biochemical, small-molecule microarray, fluorescence 635/667 (AID 1075);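 further: score combines 667 nm spot fluorescence with signal to noise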
Settings: NRG1 binding, 635 nm fluorescence, higher = more signal
measuredQuantity: composite z-score
When you answer, write just the number.

Record excerpt, results attached:
compound	measValue
CC(C)N1C(=O)[C@@]2(Cc3ccccc31)c1ccccc1C(=O)N(Cc1ccccc1)[C@H]2c1ccc(CO)cc1	0.251
C=CCNC(=O)[C@H]1[C@@H]2C(=O)O[C@@H](c3ccccc3)[C@@H](c3ccccc3)N2[C@@H](c2ccc(O)cc2)[C@]12C(=O)Nc1ccc(C#CCC(C(=O)OC)C(=O)OC)cc12	0.0652
CC[C@@H]1C=C(C(=O)O)[C@H](c2cccc(Cl)c2)N1S(=O)(=O)c1ccc(C)cc1	1.27
COc1ccc(C(O)C2C=CC3C(=O)N(c4ccccc4)C(=O)C3N2Nc2ccccc2F)c2ccccc12 (stereo not drawn)	1.79
C=C(C(=O)CC[C@@H](OC(=O)c1ccccc1-c1ccccc1C(=O)O)c1cccc(OCCO)c1)C(C)C	0.535
COC(=O)[C@@]1(Cc2ccccc2)[C@H]2c3cc(C(=O)N(C)C)n(Cc4ccc(Cl)c(C(F)(F)F)c4)c3C[C@H]2CN1C(=O)c1ccccc1	1.35
COc1ccc(NN2C(C(O)c3ccccc3)C=CC3C(=O)N(C4CCCCC4)C(=O)C32)cc1 (stereo not drawn)	1.39
CC1C2C(CCCO)=CC(C3C(=O)N(C(N)=O)C(=O)C23)N1Cc1cccc(OC(F)(F)F)c1 (stereo not drawn)	1.18

So for Cc1c(NC(=O)/C(C#N)=C/C=C/c2ccc([N+](=O)[O-])cc2)c(=O)n(-c2ccccc2)n1C , the logged composite z-score turned out to be 1.65

So for Cc1ccc(S[C@]2(C(=O)NCCN3CCOCC3)CC(=O)N(C(C)C)[C@@H]2c2ccc(CO)cc2I)cc1 , the logged composite z-score turned out to be 1.69

So for O=C1C[C@@](C(=O)NCC(F)(F)F)(c2ccc([N+](=O)[O-])cc2)[C@@H](c2ccc(CO)cc2I)N1CC12CC3CC(CC(C3)C1)C2 , the logged composite z-score turned out to be 1.01

So for COc1ccc(C#Cc2ccc3c(c2)[C@]2(C(=O)N3)[C@H](c3ccccc3OCCO)N3[C@H](c4ccccc4)[C@H](c4ccccc4)OC(=O)[C@H]3[C@@H]2C(=O)NC[C@H](O)c2ccccc2)cc1 , the logged composite z-score turned out to be 0.698

So for C=C(C(=O)CC[C@H](OC(=O)c1ccccc1-c1ccccc1C(=O)O)c1ccc(OCCO)cc1)C(C)C , the logged composite z-score turned out to be 1.76

###

Tested on: Human papillomavirus type 1a protein E7 (residues 44-93)
Assay: HPV1a E7 fragment binders on microarrays, primary screen, biochemical, small-molecule microarray, residues 44-93, 635 nm fluorescence (AID 1108);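 further: E7 fragment applied at 1 µg/mL in TBST for 1 h at 4 C; score combines spot fluorescence with its signal to noise ratio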
Details: small-molecule microarray binding, fluorescence 635 nm; higher = more signal
Returns true if the recorded composite z-score is greater than or equal to 0.8, and false otherwise.

Consider the worked cases shown below.
molecule	measuredTarget	labelClass
COCCOC(=O)N1C(=O)[C@@]2(c3cc(C#CCCO)ccc31)[C@H](C(=O)N1CCN(c3ncccn3)CC1)[C@H]1C(=O)O[C@H](c3ccccc3)[C@H](c3ccccc3)N1[C@@H]2c1ccc(OCCO)cc1	Human papillomavirus type 1a protein E7 (residues 44-93)	true
CCCCCCc1nc(Cc2cc(OC)c(OC)c(OC)c2)c(C)c2c1[Si](C(C)C)(C(C)C)OC2	Human papillomavirus type 1a protein E7 (residues 44-93)	false
C=C(COC)C(=O)CC[C@@H](OC(=O)c1ccccc1-c1ccccc1C(=O)O)c1ccccc1OCCO	Human papillomavirus type 1a protein E7 (residues 44-93)	true
CN1C(=O)C2C=CC(C(O)COCc3ccccc3)N(Nc3ccc([N+](=O)[O-])cc3[N+](=O)[O-])C2C1=O (stereo unspecified)	Human papillomavirus type 1a protein E7 (residues 44-93)	true
C=CCNC(=O)[C@H]1[C@@H]2C(=O)O[C@@H](c3ccccc3)[C@@H](c3ccccc3)N2[C@@H](c2ccc(OCCO)cc2)[C@]12C(=O)N(C(=O)OCCOC)c1ccc(C#CCNC(N)=O)cc12	Human papillomavirus type 1a protein E7 (residues 44-93)	true

Exercise: Kindly determine if composite z-score recorded for C=CCNC(=O)[C@H]1[C@@H]2C(=O)O[C@@H](c3ccccc3)[C@@H](c3ccccc3)N2[C@@H](c2ccc(O)cc2)[C@]12C(=O)Nc1ccccc12 is above or exactly 0.8.
Key: true

Exercise: Kindly determine if composite z-score recorded for Cc1ccc(S[C@]2(C(=O)NCc3ccccc3)CC(=O)N(Cc3ccccc3Cl)[C@@H]2c2ccc(CO)cc2)cc1 is above or exactly 0.8.
Key: false

Exercise: Kindly determine if composite z-score recorded for C=C(C(=O)CC[C@@H](OC(=O)c1ccccc1-c1ccccc1C(=O)O)c1cccc(OCCO)c1)C(C)C is above or exactly 0.8.
Key: false

Exercise: Kindly determine if composite z-score recorded for CCN1C(=O)C2CC(=O)C3C(CN(S(=O)(=O)c4ccc(C)cc4)C3c3ccc(C)cc3)C2C1=O (stereo unspecified) is above or exactly 0.8.
Key: false

Exercise: Kindly determine if composite z-score recorded for C=C(COC)/C(=C/C[C@@H](OC(C)=O)c1cccc(OCCO)c1)c1cnc2ccccc2c1 is above or exactly 0.8.
Key: true

Exercise: Kindly determine if composite z-score recorded for [N-]=[N+]=NCc1ccccc1[C@H]1OC(c2ccc(OCCCO)cc2)=N[C@@]1(Cc1ccccc1N=[N+]=[N-])C(=O)O is above or exactly 0.8.
Key: true

###

Test system: Plasmodium falciparum Sir2 (PF13_0152, Sir2A)
Assay: pfSir2 binders on small-molecule microarrays, primary screen, biochemical, small-molecule microarray, 635 nm fluorescence (AID 1098);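 further: score merges spot fluorescence intensity with its signal-to-noise ratio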
Details: small-molecule microarray binding, fluorescence 635 nm; higher = more signal
Entry class follows composite z-score: interval 1 (below 0.7), interval 2 (0.7 to below 1), interval 3 (1 or more)

compound	labelClass
Cc1ccc(S[C@]2(C(=O)NC(C)C)CC(=O)N(Cc3ccccc3)[C@@H]2c2ccc(CO)cc2)cc1	interval 1
O=C1C2C=CC(C(O)c3ccccn3)N(Nc3ccc([N+](=O)[O-])cc3)C2C(=O)N1c1ccccc1 (stereo unspecified)	interval 3
CO[C@H]1O[C@H](CO)[C@@H](OC(=O)CCc2ccccc2)[C@@H]2OC(=O)[C@@H](Cc3ccc4ccccc4c3)C/C=C/C[C@H](Cc3ccc4ccccc4c3)C(=O)O[C@@H]12	interval 3
C=C(C(=O)CC[C@@H](OC(=O)c1cccnc1)c1cccc(OCCO)c1)C(C)C	interval 3
C=CCNC(=O)[C@@H]1[C@H]2C(=O)O[C@H](c3ccccc3)[C@H](c3ccccc3)N2[C@H](c2ccc(O)cc2)[C@@]12C(=O)N(C(=O)OCCOC)c1ccc(C#CCC(C(=O)OC)C(=O)OC)cc12	interval 1

Exercise: Exam item: assign CC(C)c1ccc(NN2C(C(O)C(C)c3ccccc3)C=CC3C(=O)N(c4ccccc4)C(=O)C32)cc1 (stereo unspecified) to the correct category.
Key: interval 3

Exercise: Exam item: assign CCOC(=O)C[C@H]1[C@H](OC(=O)c2ccc(-c3ccccc3)cc2)[C@@H](NC(=O)c2ccc(-c3ccccc3)cc2)c2cc(OCCCO)ccc2N1C(=O)c1ccccc1 to the correct category.
Key: interval 1

Exercise: Exam item: assign CCCC1(C(=O)OC)C=C2C(=C(C(C)C)C(=O)C2C)CN1 (stereo unspecified) to the correct category.
Key: interval 1

Exercise: Exam item: assign COc1ccc(-c2cc3c(c(CCc4ccccc4)n2)[Si](C(C)C)(C(C)C)O[C@H]3c2ccccc2)cn1 to the correct category.
Key: interval 1

###

Experiment: inhibitors of hydroxyurea-induced Chk1 phosphorylation, primary screen, imaging, HeLa, phospho-Chk1 nuclear intensity (AID 1187); further: test concentration not given here
Details: hydroxyurea-induced phospho-Chk1 immunofluorescence imaging, higher = more signal
Activity calls are given as the source filed them. How the calls were made is not given here.
measuredQuantity: z-score

Record excerpt, results attached:
molecule	measValue
O=C/C=C/c1ccc(-c2ccccc2)cc1	0.792 (inactive)
O=C1N(Cc2ccccc2)Cc2ccccc2C[C@@]12COC(c1ccc(OCCCO)cc1)=N2	0.273 (inactive)
CCOC(=O)C[C@H]1[C@H](OC(=O)c2ccccc2-c2ccccc2)[C@@H](NC(=O)CC(C)C)c2cc(OCCCO)ccc2N1C(=O)c1ccccc1	-0.151 (inactive)
CCCN1C(=O)[C@@]2(c3ccc([N+](=O)[O-])cc3)CC(=O)N(C3CCCCC3)[C@@H]2c2ccc(CO)cc21	0.105 (inactive)
[N-]=[N+]=NCc1ccccc1[C@H]1OC(c2ccc(OCCCO)cc2)=N[C@@]1(Cc1ccccc1N=[N+]=[N-])C(N)=O	0.516 (inactive)

So for C[C@H]1C2[C@H](Cc3ccccc3)NC(=O)[C@]23C(=O)N[C@@H](Cc2ccccc2)C(=O)N2CCC[C@H]2C(=O)NC/C=C/CC/C=C/C3[C@@H]2O[C@]12C (stereo partly specified) , the logged z-score turned out to be -0.437 (inactive)

So for O=C1O[C@H](c2ccccc2)[C@H](c2ccccc2)N2[C@H]1[C@@H](C(=O)O)[C@]1(C(=O)Nc3ccccc31)[C@H]2c1ccc(OCCO)cc1 , the logged z-score turned out to be 0.612 (inactive)

So for CN1C2C=C(c3ccc(CO)cc3)C(C3C(=O)N(C(N)=O)C(=O)C32)C1C1CC1 (stereo unspecified) , the logged z-score turned out to be 0.169 (inactive)

So for Cc1ccc(S(=O)(=O)N2[C@@H](c3ccccc3)C(C(=O)O)=C[C@H]2C(C)(C)C)cc1 , the logged z-score turned out to be 0.0696 (inactive)

So for CO[C@H]1O[C@H](CO)[C@@H](OC(=O)Nc2cccc(F)c2)[C@H](OC(=O)c2cc3ccccc3[nH]2)[C@H]1OC(=O)c1cc2ccccc2[nH]1 , the logged z-score turned out to be -0.455 (inactive)

So for COCCOC(=O)N1C(=O)[C@@]2(c3cc(C#CCNC(N)=O)ccc31)[C@H](C(=O)N1CCN(c3ncccn3)CC1)[C@H]1C(=O)O[C@H](c3ccccc3)[C@H](c3ccccc3)N1[C@@H]2c1ccc(O)cc1 , the logged z-score turned out to be -0.206 (inactive)
